clearance: recorded values
METHOD_NOTES: Pharmacokinetics in SD rats
Type: in vivo, Sprague–Dawley (SD) rats
MEASUREMENT_PARAMETERS: male, Sprague-Dawley, rat, plasma, IV 5 mg/kg, mean, read-out: CL_obs
Write the number in mL/min/kg without appending the unit.

Cc1sc2c(c1C)C(c1ccc(Cl)cc1)=NC(CC(=O)NCCNC(=O)OC1CCC=CCCC1)c1nnc(C)n1-2 (centres unmarked) | 69

Next up:
[Q] What clearance value was documented for this compound, Cc1nnc(CNC(=O)CCOCC(COCCC(=O)NCc2nnc(C)nn2)NC(=O)COc2cccc3c2C(=O)N(C2CCC(=O)NC2=O)C3=O)nn1 (centres unmarked) ?
[A] 171

###

METHOD_NOTES: Pharmacokinetics in SD rats
Assay type: in vivo, Sprague–Dawley (SD) rats
MEASUREMENT_PARAMETERS: male, Sprague-Dawley, rat, plasma, IP 20 mg/kg, mean
MEASUREMENT_LABEL: bioavailability
Just the number plus its unit, please.

[Q] What bioavailability value was documented for this compound, Cc1sc2c(c1C)C(c1ccc(Cl)cc1)=NC(CC(=O)NCCNC(=O)OC1CCC=CCCC1)c1nnc(C)n1-2 (stereo not shown) ?
[A] 64%

###

METHOD_NOTES: Pharmacokinetics in SD rats
Assay type: in vivo, Sprague–Dawley (SD) rats
MEASUREMENT_PARAMETERS: male, Sprague-Dawley, rat, plasma, IV 5 mg/kg, mean
MEASUREMENT_LABEL: C0 (ng/mL)
Write the number in ng/mL without appending the unit.

Cc1nnc(CNC(=O)CCOCC(COCCC(=O)NCc2nnc(C)nn2)NC(=O)COc2cccc3c2C(=O)N(C2CCC(=O)NC2=O)C3=O)nn1 (centres unmarked) | 1850

Next up:
[Q] What C0 value was documented for this compound, Cc1sc2c(c1C)C(c1ccc(Cl)cc1)=NC(CC(=O)NCCNC(=O)OC1CCC=CCCC1)c1nnc(C)n1-2 (centres unmarked) ?
[A] 2030

###

AUC(0-t): recorded values
METHOD_NOTES: Pharmacokinetics in SD rats
Assay type: in vivo, Sprague–Dawley (SD) rats
MEASUREMENT_PARAMETERS: male, Sprague-Dawley, rat, plasma, IV 5 mg/kg, mean
Write the number in ng·h/mL without appending the unit.

Cc1nnc(CNC(=O)CCOCC(COCCC(=O)NCc2nnc(C)nn2)NC(=O)COc2cccc3c2C(=O)N(C2CCC(=O)NC2=O)C3=O)nn1 (centres unmarked) [POM-dmTz] | 496

[Q] What AUC(0-t) value was documented for this compound, Cc1sc2c(c1C)C(c1ccc(Cl)cc1)=NC(CC(=O)NCCNC(=O)OC1CCC=CCCC1)c1nnc(C)n1-2 (centres unmarked) [JQ1-TCO] ?
[A] 1240

###

METHOD_NOTES: Pharmacokinetics in SD rats
Assay type: in vivo, Sprague–Dawley (SD) rats
MEASUREMENT_PARAMETERS: male, Sprague-Dawley, rat, plasma, IV 5 mg/kg, mean, read-out: MRTinf_obs
MEASUREMENT_LABEL: MRT inf (min)
Write the number in min without appending the unit.

Cc1sc2c(c1C)C(c1ccc(Cl)cc1)=NC(CC(=O)NCCNC(=O)OC1CCC=CCCC1)c1nnc(C)n1-2 (centres unmarked) | 44

[Q] What MRT inf value was documented for this compound, Cc1nnc(CNC(=O)CCOCC(COCCC(=O)NCc2nnc(C)nn2)NC(=O)COc2cccc3c2C(=O)N(C2CCC(=O)NC2=O)C3=O)nn1 (centres unmarked) ?
[A] 21.3

###

METHOD_NOTES: Pharmacokinetics in SD rats
Assay type: in vivo, Sprague–Dawley (SD) rats
MEASUREMENT_PARAMETERS: male, Sprague-Dawley, rat, plasma, IP 10 mg/kg, mean
MEASUREMENT_LABEL: Tmax

[Q] What Tmax value was documented for this compound, Cc1nnc(CNC(=O)CCOCC(COCCC(=O)NCc2nnc(C)nn2)NC(=O)COc2cccc3c2C(=O)N(C2CCC(=O)NC2=O)C3=O)nn1 (stereo not shown) ?
[A] 25 min
